// data source = PubChem BioAssay AID489040

# TESTED TARGET: CHO-XBP1 luciferase reporter, IRE1-XBP1 UPR activation
# TEST PROTOCOL: XBP1 luciferase reporter activation – CHO-XBP1 cells, luminescence, counter-screen for apoptotic UPR arm activators, dose response (AID 489040);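 further: reporter read after six hours of compound exposure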
Calls of active or inactive are those of the source.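 How the source made its calls: active means mean half-maximal activating concentration from the dose-response fit at or below a set limit; inactive means the rest.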
Result category, one only: 1 = active, -1 = inactive

Use these answered entries as a reference point.
>>> print(df.to_string())
                                   compound  category_label
0    Cn1nnnc1Sc1ncnc2scc(-c3cc4ccccc4o3)c12              -1
1    O=C(C#Cc1cccc([N+](=O)[O-])c1)c1ccccc1              -1
2  Cn1nc([N+](=O)[O-])c(C(C#N)c2ccccn2)c(Cl)c1=O (stereo not drawn)              -1
3  O=C(COC(=O)c1ccccc1C(=O)c1ccc(Cl)c([N+](=O)[O-])c1)NC1CCCCCC1              -1

Which outcome did this test record for the compound COc1ccc2cc1Oc1ccc(cc1)CC1c3c(cc(OC)c4c3Oc3cc5c(cc3O4)CCNC5C2)CCN1C (stereo not drawn) ?
-1

Look up the recorded call for "Cc1cccc(Nc2nc(-c3ccccn3)cs2)n1" in this test.
-1

Status in this test for "Cc1ccc(NC(=O)c2ccc(N/N=C/c3cccc(O)c3)c([N+](=O)[O-])c2)cc1" ?
-1

----------
# TESTED TARGET: CHO-XBP1 luciferase reporter, IRE1-XBP1 UPR activation
# TEST PROTOCOL: XBP1 luciferase reporter activation – CHO-XBP1 cells, luminescence, counter-screen for apoptotic UPR arm activators, dose response (AID 489040);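 further: reporter read after six hours of compound exposure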
Activity calls are given as the source filed them.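 The calls were made as follows: active = mean half-maximal activating concentration from the dose-response fit at or below a set limit; inactive = the rest.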
Give one outcome, nothing more. List: true (active), false (inactive)

                                   molecule  category_label
0  COc1ccc(C(=O)/C=C2/C(=O)Nc3ccccc32)c(OC)c1           false
1  Oc1c(CN2CCN(c3ccc(F)cc3)CC2)cc(Cl)c2cccnc12           false
2  COC(=O)c1cc(=O)n(CCc2ccc(OC)c(OC)c2)c(=Nc2ccc(F)c(Cl)c2)s1           false
3  Cc1nc([N+](=O)[O-])c(Br)n1CC(=O)c1ccc(Cl)cc1           false
4  CCOc1ccc(N2C(=O)CC(N(O)c3ccccc3)C2=O)cc1 (stereo not given)           false
5       COc1ccc(/C=C\c2nc(=O)c3ccccc3o2)cc1           false
6  Cc1ccc(-c2nnc(-c3ccc(NC(=O)c4cccs4)cc3)o2)cc1            true
7  CNC[C@@H](Cc1ccccc1)NC[C@@H](CC1CCCCC1)NCCCc1ccccc1           false
8                Oc1cc(-c2cccnc2)cc2cccnc12           false

Would you kindly look at the next entry?
Assay result, entry "O=C(NCc1ccccc1Br)c1cccc2c1C(=O)c1ccc(-c3ccc(OC(F)(F)F)cc3)cc1S2(=O)=O" — outcome?
true

----------
# TESTED TARGET: CHO-XBP1 luciferase reporter, IRE1-XBP1 UPR activation
# TEST PROTOCOL: XBP1 luciferase reporter activation – CHO-XBP1 cells, luminescence, counter-screen for apoptotic UPR arm activators, dose response (AID 489040);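 further: reporter read after six hours of compound exposure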
Active and inactive are the calls of the source.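 Rule for the calls: active = mean half-maximal activating concentration from the dose-response fit at or below a set limit; inactive = the rest.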
Use one of these outcomes when replying: yes = active, no = inactive

>>> df
                                   compound                             tested_target  category_label
0  O=C(Nc1ccc(S(=O)(=O)N2CCOCC2)cc1)c1ccc([N+](=O)[O-])o1  CHO-XBP1 luciferase reporter, IRE1-XBP1 UPR activation              no

I would be grateful if you could indicate the recorded call for "Oc1ccc2ccccc2c1N=Nc1ccccn1" .
no

Outcome? "CCc1nc(N=Nc2c(O)[nH]c3ccccc23)c2c3c(sc2n1)CCC3"
no

// param item: "COc1cc(/C=C/C(=O)N2C(=O)c3cccc(N)c3C2=O)cc(OC)c1OC" ; yields the recorded call
no

// param item: "COC(=O)C1=C(C)N(c2ccc(C)c(C)c2)/C(=C/c2ccco2)C1=O" ; yields the recorded call
no

Could you please tell me the result logged for "Fc1ccc(NC(=S)Nc2nccs2)cc1" in this assay?
no

Returns: the outcome recorded for "CCOC(=O)C(=Cc1ccc(F)cc1)C(=O)OCC" in this assay.
no

I would be grateful if you could indicate the recorded call for "COc1ccccc1-c1cc(C(F)(F)F)nc(S(C)(=O)=O)n1" .
no

I'd appreciate the recorded outcome for "COc1ccc(/C=C/C(=O)c2ccc([N+](=O)[O-])o2)cc1" from this test.
no

Hello, I am checking results. What call was entered for "CN(/N=C\c1ccc(O)c(O)c1)c1nc(-c2ccccc2)cc(-c2ccccc2)n1" ?
yes

Kindly provide the recorded test outcome for the following compound: "CC1=C/C(=N\OC(=O)/C=C/c2ccccc2)C(C)=CC1=O"
no

Short answer needed: outcome of this test for "Cc1ccccc1CS(=O)(=O)c1ncc(Cl)c(C(=O)Nc2ccc(F)cc2)n1" ?
no

Hey, what did the test say about "Oc1c(CN2CCCCC2)cc(Br)c2cccnc12" ?
no
